# targetOfAssay: HA of ca A/Hong Kong/213/03 (H5N1) virus (influenza A virus)
# protocol: cell-based or functional assay
The following binders are shown together with reported Neutralization IC50, H5-HK03 values.
Reply with just the number (in µg/mL).

INSERT INTO assay_data (binder, unitannotation, endpointvalue) VALUES
  ('Antibody 6 (antibody, V domains shown) VH: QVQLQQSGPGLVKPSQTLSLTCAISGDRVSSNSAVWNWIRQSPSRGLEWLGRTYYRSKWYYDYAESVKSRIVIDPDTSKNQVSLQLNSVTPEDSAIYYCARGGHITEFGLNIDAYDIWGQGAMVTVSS VL: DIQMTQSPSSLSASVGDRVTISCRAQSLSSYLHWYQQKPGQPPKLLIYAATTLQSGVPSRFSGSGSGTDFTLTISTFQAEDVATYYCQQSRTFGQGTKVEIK', 'µg/mL', 10.4),
  ('Antibody 10 (antibody, V domains shown) VH: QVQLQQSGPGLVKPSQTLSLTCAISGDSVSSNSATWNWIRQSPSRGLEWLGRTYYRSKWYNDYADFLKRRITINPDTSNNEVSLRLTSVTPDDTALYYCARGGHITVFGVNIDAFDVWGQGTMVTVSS VL: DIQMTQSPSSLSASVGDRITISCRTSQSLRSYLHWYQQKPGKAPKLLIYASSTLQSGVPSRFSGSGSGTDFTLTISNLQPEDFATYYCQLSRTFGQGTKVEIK', 'µg/mL', 1.6),
  ('Antibody 8 (antibody, V domains shown) VH: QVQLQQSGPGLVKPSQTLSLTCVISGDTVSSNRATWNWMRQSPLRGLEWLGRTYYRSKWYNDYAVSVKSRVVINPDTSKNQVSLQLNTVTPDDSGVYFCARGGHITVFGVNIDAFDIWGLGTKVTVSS VL: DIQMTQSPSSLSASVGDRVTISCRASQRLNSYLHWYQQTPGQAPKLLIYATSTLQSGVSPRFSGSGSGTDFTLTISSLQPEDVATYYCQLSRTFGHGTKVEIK', 'µg/mL', 1.82);

For the binder Antibody 5 (antibody, V domains shown) VH: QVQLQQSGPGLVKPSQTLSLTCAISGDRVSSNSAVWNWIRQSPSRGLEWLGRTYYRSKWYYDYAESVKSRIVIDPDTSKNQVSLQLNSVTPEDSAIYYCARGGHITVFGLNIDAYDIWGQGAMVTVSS VL: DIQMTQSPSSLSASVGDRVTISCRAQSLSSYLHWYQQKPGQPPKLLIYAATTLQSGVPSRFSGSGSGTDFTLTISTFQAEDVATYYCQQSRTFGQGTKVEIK , what Neutralization IC50, H5-HK03 is on record?
1.18
